Data origin, for the record: ChEMBL document CHEMBL3885861

Species: Rattus norvegicus
Assay: Open TG-GATES - Regimen: Single
Assay type: toxicity, organism-based, Sprague-Dawley
Set-up: regimen Single, gender Male, age 6 weeks
Details: in vivo, po, 0 mg/kg, 24 h, tissue Plasma, route gavage, dose level Control
Measurement Name: Cl (meq/L)
Answers are plain numbers, in meq/L.

Molecule	Cl [meq/L]
CN1C(=O)CCS(=O)(=O)C1c1ccc(Cl)cc1 (configuration not stated)	105.2
O=C(OC[C@H]1O[C@@H](OC(=O)c2cc(O)c(O)c(OC(=O)c3cc(O)c(O)c(O)c3)c2)[C@H](OC(=O)c2cc(O)c(O)c(OC(=O)c3cc(O)c(O)c(O)c3)c2)[C@@H](OC(=O)c2cc(O)c(O)c(OC(=O)c3cc(O)c(O)c(O)c3)c2)[C@@H]1OC(=O)c1cc(O)c(O)c(OC(=O)c2cc(O)c(O)c(O)c2)c1)c1cc(O)c(O)c(OC(=O)c2cc(O)c(O)c(O)c2)c1	103.8
CCOc1ccc(NC(C)=O)cc1	104.4
COC(=O)C1=C(C)NC(C)=C(C(=O)OC)C1c1ccccc1[N+](=O)[O-]	106.6

Look up Cl for the entries below, preserving their order.
1. CC(C)NNC(=O)c1ccncc1
2. CCCc1cc(=O)[nH]c(=S)[nH]1

Result:
1: 107.6; 2: 105.2

molecule CN/C(=N/CCSCc1nc[nH]c1C)NC#N , Cl observed: 101.6

----------
Organism: Rattus norvegicus
Assay: Open TG-GATES - Regimen: Daily Repeat
Type: toxicity, organism-based, Sprague-Dawley
Parameters: regimen Daily Repeat, gender Male, age 6 weeks
Details: in vivo, po, 300 mg/kg, […], tissue Plasma, route gavage, dose level Middle, time 14 day
Please use met whenever ALP is not below 1000 IU/L, and not met whenever it is.

Chemical Structure	Classification
CNC(=C[N+](=O)[O-])NCCSCc1ccc(CN(C)C)o1	not met
CN/C(=N/CCSCc1nc[nH]c1C)NC#N	met

Problem: State whether the measured ALP reaches 1000 IU/L, counting equality as reaching it, for COC(=O)C1=C(C)NC(C)=C(C(=O)OC)C1c1ccccc1[N+](=O)[O-]
Result: met

Problem: Given O=C(OC[C@H]1O[C@@H](OC(=O)c2cc(O)c(O)c(OC(=O)c3cc(O)c(O)c(O)c3)c2)[C@H](OC(=O)c2cc(O)c(O)c(OC(=O)c3cc(O)c(O)c(O)c3)c2)[C@@H](OC(=O)c2cc(O)c(O)c(OC(=O)c3cc(O)c(O)c(O)c3)c2)[C@@H]1OC(=O)c1cc(O)c(O)c(OC(=O)c2cc(O)c(O)c(O)c2)c1)c1cc(O)c(O)c(OC(=O)c2cc(O)c(O)c(O)c2)c1 , state whether its ALP is at least 1000 IU/L.
Result: not met

Problem: Identify whether the reported ALP of the following compound is 1000 IU/L or greater: CCOc1ccc(NC(C)=O)cc1
Result: met

Problem: Dear colleague, could you confirm whether Cc1nnc2n1-c1ccc(Cl)cc1C(c1ccccc1Cl)=NC2 has ALP at or above 1000 IU/L?
Result: met

----------
Species on record: Rattus norvegicus
Test: Open TG-GATES - Regimen: Daily Repeat
Assay type: toxicity, organism-based, Sprague-Dawley
Parameters: regimen Daily Repeat, gender Male, age 6 weeks
Settings: in vivo, po, 100 mg/kg, […], tissue Blood, route gavage, dose level Low, time 28 day
Measurement Name: Bas (%)
Numbers only, in %.

Use the examples below as a reference point.
Chemical Structure	Bas (%)
CNC(=C[N+](=O)[O-])NCCSCc1ccc(CN(C)C)o1	0.2
COC(=O)C1=C(C)NC(C)=C(C(=O)OC)C1c1ccccc1[N+](=O)[O-]	0
CN/C(=N/CCSCc1nc[nH]c1C)NC#N	0.2

Looking up Cc1nnc2n1-c1ccc(Cl)cc1C(c1ccccc1Cl)=NC2 , I found its Bas recorded as 0.2
